Read-out: Keratin 19 (KRT19), KRT19 (gene 3880)
Test description: LTEA_HepaRG_KRT19: Life Technologies and Expression Analysis (LTEA) Assay for Keratin 19 (KRT19) using HepaRG (AID 2283512)
Study conditions: mRNA level, 48 h; actives raise or lower the signal
Activity calls are given as the source filed them. How the source made its calls: active means hit-call score of the fitted dose curve at least 0.9, where 1 is the maximum; inactive means score below 0.9.
Outcome measure: AC50

Below are worked cases with known answers.
>  <Structure>
CS(=O)(=O)c1ccc([C@@H](C[C@H]2CCC(=O)C2)C(=O)Nc2cnccn2)cc1Cl

>  <AC50>
inactive

$$$$
>  <Structure>
S=c1[nH]c2ccccc2s1

>  <AC50>
inactive

$$$$
>  <Structure>
CC1=C(C)S(=O)(=O)CCS1(=O)=O

>  <AC50>
76.6 µM (active)

$$$$
>  <Structure>
O=C(NS(=O)(=O)/C=C/c1cccs1)c1ccc(F)cc1Br

>  <AC50>
inactive

$$$$
>  <Structure>
CC(C)c1cccc(C(C)C)c1

>  <AC50>
inactive

$$$$
>  <Structure>
C=CCc1ccc(OC)c(OC)c1

>  <AC50>
inactive

$$$$

Now let's try a different one.
Query: // lookup AC50 for `CC1(C)C(=O)NC(=O)N1CO`
Reply: inactive
